Experiment: Metabolic stability in CD-1 mouse liver microsomes preincubated for 10 mins followed by NADPH regenerating system addition and measured after 10 mins by LC-MS/MS analysis
Format: ADME, Microsome
Settings: time 20 min, read-out: Stability
quantity name: microsomal CLint (µL/min/mg)
Just the number in µL/min/mg, nothing appended.

Lookup: State its microsomal CLint for this molecule: COc1cc(N2CCC(N3CCN(C(=O)CNc4cccc5c4C(=O)N(C4CCC(=O)NC4=O)C5=O)CC3)CC2)ccc1Nc1ncc(Cl)c(Nc2ccccc2P(C)(C)=O)n1 (stereo unspecified)
Found: 16.7

----------
Test: Oral bioavailability in […] at 10 mg/kg measured upto 24 hrs
Format: ADME, organism-based
Details: in vivo
quantity name: bioavailability (%)
Just the number in %, nothing appended.

Lookup: State its bioavailability for this compound: COc1cc(N2CCC(N3CCN(C(=O)CNc4cccc5c4C(=O)N(C4CCC(=O)NC4=O)C5=O)CC3)CC2)ccc1Nc1ncc(Cl)c(Nc2ccccc2P(C)(C)=O)n1 (stereo unspecified)
Found: 18.4

----------
Test: AUC in […] at 10 mg/kg, po or 2 mg/kg, iv measured upto 24 hrs
Assay type: ADME, organism-based
Parameters: dose 10 mg/kg, time <=24
Conditions: in vivo
quantity name: AUC at 24 h (ng·h/mL)
Just the number in ng·h/mL, nothing appended.

Lookup: State its AUC at 24 h for this compound: COc1cc(N2CCC(N3CCN(C(=O)CNc4cccc5c4C(=O)N(C4CCC(=O)NC4=O)C5=O)CC3)CC2)ccc1Nc1ncc(Cl)c(Nc2ccccc2P(C)(C)=O)n1 (stereo unspecified)
Found: 1560

----------
Assay: Metabolic stability in human liver microsomes assessed as intrinsic clearance preincubated for 10 mins followed by NADPH regenerating system addition and measured after 10 mins by LC-MS/MS analysis
Type: ADME, Microsome
Details: time 20 min, read-out: CLH
quantity name: CLint scaled (mL/min/kg)
Just the number in mL/min/kg, nothing appended.

Lookup: State its CLint scaled for this compound: COc1cc(N2CCC(N3CCN(C(=O)CNc4cccc5c4C(=O)N(C4CCC(=O)NC4=O)C5=O)CC3)CC2)ccc1Nc1ncc(Cl)c(Nc2ccccc2P(C)(C)=O)n1 (stereo unspecified)
Found: 22.6

----------
Assay: Metabolic stability in human liver microsomes preincubated for 10 mins followed by NADPH regenerating system addition and measured after 10 mins by LC-MS/MS analysis
Assay type: ADME, Microsome
Details: time 20 min, read-out: Stability
quantity name: microsomal CLint

Lookup: State its microsomal CLint for this compound: COc1cc(N2CCC(N3CCN(C(=O)CNc4cccc5c4C(=O)N(C4CCC(=O)NC4=O)C5=O)CC3)CC2)ccc1Nc1ncc(Cl)c(Nc2ccccc2P(C)(C)=O)n1 (stereo unspecified)
Found: < 9.6 µL/min/mg

----------
Molecular target: ALK tyrosine kinase receptor (Homo sapiens)
quantity name: IC50 (nM)
Just the number in nM, nothing appended.

Lookup: Please look at COc1cc(N2CCC(N3CCN(C(=O)CNc4cccc5c4C(=O)N(C4CCC(=O)NC4=O)C5=O)CC3)CC2)ccc1Nc1ncc(Cl)c(Nc2ccccc2P(C)(C)=O)n1 (stereo unspecified) and tell me its recorded IC50 on ALK tyrosine kinase receptor (Homo sapiens).
Found: 2.5

----------
Biological target: ALK tyrosine kinase receptor (Homo sapiens, UniProt Q9UM73, G1202R)
Sequence (Q9UM73 19-1620 G1202R limits assumed): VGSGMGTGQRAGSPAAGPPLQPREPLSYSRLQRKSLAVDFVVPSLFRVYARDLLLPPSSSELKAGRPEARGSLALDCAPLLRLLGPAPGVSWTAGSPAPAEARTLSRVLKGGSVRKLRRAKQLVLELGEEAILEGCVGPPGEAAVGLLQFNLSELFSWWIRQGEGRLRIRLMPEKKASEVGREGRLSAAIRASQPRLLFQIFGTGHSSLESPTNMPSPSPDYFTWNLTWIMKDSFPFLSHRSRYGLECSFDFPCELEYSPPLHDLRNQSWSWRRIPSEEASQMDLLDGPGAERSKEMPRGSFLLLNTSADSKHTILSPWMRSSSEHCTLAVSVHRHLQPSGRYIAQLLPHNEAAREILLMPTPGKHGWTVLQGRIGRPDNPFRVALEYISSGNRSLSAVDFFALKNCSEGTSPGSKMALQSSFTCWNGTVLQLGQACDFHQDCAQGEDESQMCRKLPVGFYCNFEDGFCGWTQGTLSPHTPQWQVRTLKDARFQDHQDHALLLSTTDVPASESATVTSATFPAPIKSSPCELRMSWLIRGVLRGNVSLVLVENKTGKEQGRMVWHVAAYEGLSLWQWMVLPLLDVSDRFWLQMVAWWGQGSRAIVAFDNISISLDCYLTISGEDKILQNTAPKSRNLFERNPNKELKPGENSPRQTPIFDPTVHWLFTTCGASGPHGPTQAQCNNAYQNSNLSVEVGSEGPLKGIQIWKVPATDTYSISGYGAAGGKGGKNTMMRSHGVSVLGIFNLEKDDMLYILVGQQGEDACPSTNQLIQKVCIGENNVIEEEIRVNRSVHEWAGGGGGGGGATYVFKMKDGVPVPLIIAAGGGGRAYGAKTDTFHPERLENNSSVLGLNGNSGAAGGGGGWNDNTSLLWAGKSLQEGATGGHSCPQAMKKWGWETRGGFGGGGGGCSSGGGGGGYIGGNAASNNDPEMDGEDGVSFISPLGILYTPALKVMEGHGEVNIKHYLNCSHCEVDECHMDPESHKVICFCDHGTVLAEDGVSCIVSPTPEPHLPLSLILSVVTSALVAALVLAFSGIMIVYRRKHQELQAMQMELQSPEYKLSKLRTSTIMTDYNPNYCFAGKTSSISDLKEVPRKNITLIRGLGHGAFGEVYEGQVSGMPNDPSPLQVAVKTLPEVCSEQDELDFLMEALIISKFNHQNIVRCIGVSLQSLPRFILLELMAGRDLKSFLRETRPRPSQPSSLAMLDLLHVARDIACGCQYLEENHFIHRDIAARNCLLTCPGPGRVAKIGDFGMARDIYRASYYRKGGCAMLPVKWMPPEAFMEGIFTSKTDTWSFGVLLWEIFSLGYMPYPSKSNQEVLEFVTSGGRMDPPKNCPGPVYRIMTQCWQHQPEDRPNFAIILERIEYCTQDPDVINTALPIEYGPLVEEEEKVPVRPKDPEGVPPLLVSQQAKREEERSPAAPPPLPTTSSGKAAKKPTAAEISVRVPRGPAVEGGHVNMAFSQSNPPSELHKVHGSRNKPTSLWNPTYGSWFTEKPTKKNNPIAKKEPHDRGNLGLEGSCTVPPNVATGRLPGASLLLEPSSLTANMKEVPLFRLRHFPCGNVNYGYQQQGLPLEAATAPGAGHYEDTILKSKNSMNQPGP
Assay: Binding affinity to ALK G1202R mutant (unknown origin)
quantity name: IC50 (nM)
Just the number in nM, nothing appended.

Lookup: Please look at COc1cc(N2CCC(N3CCN(C(=O)CNc4cccc5c4C(=O)N(C4CCC(=O)NC4=O)C5=O)CC3)CC2)ccc1Nc1ncc(Cl)c(Nc2ccccc2P(C)(C)=O)n1 (stereo unspecified) and tell me its recorded IC50 on ALK tyrosine kinase receptor (Homo sapiens, UniProt Q9UM73, G1202R).
Found: 6.6
